EXPERIMENT DESCRIPTION: Phase 2 toxicokinetics of brincidofovir and cidofovir in plasma
Assay type: in vivo, Sprague-Dawley CD rats
SETUP CONDITIONS: male, Sprague-Dawley CD, rat, plasma, iv, 1 mg/kg, brincidofovir in plasma; 1 mg/kg 2-hour IV infusion, Male rats, Day 1
REPORTED METRIC: Cmax (ng/mL)
One number for each entry, in ng/mL.

Specify Cmax for CCCCCCCCCCCCCCCCOCCCOP(=O)(O)CO[C@H](CO)Cn1ccc(N)nc1=O and stop.
235

* * *

EXPERIMENT DESCRIPTION: Phase 2 toxicokinetics of brincidofovir and cidofovir in plasma
Format: in vivo, Sprague-Dawley CD rats
SETUP CONDITIONS: female, Sprague-Dawley CD, rat, plasma, intravenous, 15 mg/kg, plasma; 15 mg/kg; female rats; Day 1; 24 h; read-out: C (Concentration), individual animals
REPORTED METRIC: concentration at 24 h (ng/mL)
One number for each entry, in ng/mL.

Complete the entry with concentration at 24 h for CCCCCCCCCCCCCCCCOCCCOP(=O)(O)CO[C@H](CO)Cn1ccc(N)nc1=O [Brincidofovir]
2.32

* * *

EXPERIMENT DESCRIPTION: Phase 2 toxicokinetics of brincidofovir and cidofovir in plasma
Type: in vivo, Sprague-Dawley CD rats
SETUP CONDITIONS: female, Sprague-Dawley CD, rat, plasma, intravenous, 1 mg/kg, plasma; brincidofovir 1 mg/kg 2-h IV infusion; female rats; Day 7; 0 h; BLQ imputed as zero; read-out: Imputed Concentration, individual animals
REPORTED METRIC: concentration at 0 h (ng/mL)
Give bare numbers, in ng/mL.

[
  {
    "SUBSTANCE SMILES": "CCCCCCCCCCCCCCCCOCCCOP(=O)(O)CO[C@H](CO)Cn1ccc(N)nc1=O",
    "concentration at 0 h, ng/mL": 0
  }
]

Alright, here's another compound for you.
Tell me concentration at 0 h reported for Nc1ccn(C[C@@H](CO)OCP(=O)(O)O)c(=O)n1
0

* * *

EXPERIMENT DESCRIPTION: IV BCV single ascending dose study: plasma BCV and CDV PK
Format: in vivo, human
SETUP CONDITIONS: human, intravenous; plasma BCV, Cohorts 1-3 (2-hour infusion)
Experimental: Plasma PK samples were collected over 7 days and assayed by HPLC-MS. Plasma BCV PK parameters were determined by non-compartmental analysis and dose proportionality was assessed. Safety assessments were collected over 14 days.
REPORTED METRIC: Tmax (h)
Answers are plain numbers, in h.

Identify Tmax associated with the compound CCCCCCCCCCCCCCCCOCCCOP(=O)(O)CO[C@H](CO)Cn1ccc(N)nc1=O
2

* * *

EXPERIMENT DESCRIPTION: 28-day study toxicokinetics of brincidofovir and CDV in plasma
Type: in vivo, Sprague-Dawley CD rats
SETUP CONDITIONS: both sexes, Sprague-Dawley CD, rat, in vivo, iv, 4 mg/kg, plasma brincidofovir; Day 1; 4 mg/kg; combined male and female; Median
REPORTED METRIC: Cmax
Could you kindly put the unit after your number?

Identify the reported Cmax for the following entry. CCCCCCCCCCCCCCCCOCCCOP(=O)(O)CO[C@H](CO)Cn1ccc(N)nc1=O
1000 ng/mL

* * *

Give measured concentration at 2 h for each item. Keep answers brief.
EXPERIMENT DESCRIPTION: Phase 2 toxicokinetics of brincidofovir and cidofovir in plasma
Type: in vivo, Sprague-Dawley CD rats
SETUP CONDITIONS: female, Sprague-Dawley CD, rat, plasma, intravenous, 1 mg/kg, plasma; brincidofovir 1 mg/kg 2-h IV infusion; female rats; Day 1; 2 h; BLQ imputed as zero; read-out: Imputed Concentration, Mean
Numbers only, in ng/mL.

[
  {
    "MOLECULE": "CCCCCCCCCCCCCCCCOCCCOP(=O)(O)CO[C@H](CO)Cn1ccc(N)nc1=O [Brincidofovir]",
    "concentration at 2 h (ng/mL)": 191
  }
]

Now for the molecule whose concentration at 2 h we want.
Please report the measured concentration at 2 h for Nc1ccn(C[C@@H](CO)OCP(=O)(O)O)c(=O)n1 [Cidofovir]
9.35
